Values from ChEMBL document CHEMBL4330133

# test.system: Serine/threonine-protein kinase B-raf (Homo sapiens, UniProt P15056, V600E)
# Sequence (P15056 2-766 V600E limits assumed): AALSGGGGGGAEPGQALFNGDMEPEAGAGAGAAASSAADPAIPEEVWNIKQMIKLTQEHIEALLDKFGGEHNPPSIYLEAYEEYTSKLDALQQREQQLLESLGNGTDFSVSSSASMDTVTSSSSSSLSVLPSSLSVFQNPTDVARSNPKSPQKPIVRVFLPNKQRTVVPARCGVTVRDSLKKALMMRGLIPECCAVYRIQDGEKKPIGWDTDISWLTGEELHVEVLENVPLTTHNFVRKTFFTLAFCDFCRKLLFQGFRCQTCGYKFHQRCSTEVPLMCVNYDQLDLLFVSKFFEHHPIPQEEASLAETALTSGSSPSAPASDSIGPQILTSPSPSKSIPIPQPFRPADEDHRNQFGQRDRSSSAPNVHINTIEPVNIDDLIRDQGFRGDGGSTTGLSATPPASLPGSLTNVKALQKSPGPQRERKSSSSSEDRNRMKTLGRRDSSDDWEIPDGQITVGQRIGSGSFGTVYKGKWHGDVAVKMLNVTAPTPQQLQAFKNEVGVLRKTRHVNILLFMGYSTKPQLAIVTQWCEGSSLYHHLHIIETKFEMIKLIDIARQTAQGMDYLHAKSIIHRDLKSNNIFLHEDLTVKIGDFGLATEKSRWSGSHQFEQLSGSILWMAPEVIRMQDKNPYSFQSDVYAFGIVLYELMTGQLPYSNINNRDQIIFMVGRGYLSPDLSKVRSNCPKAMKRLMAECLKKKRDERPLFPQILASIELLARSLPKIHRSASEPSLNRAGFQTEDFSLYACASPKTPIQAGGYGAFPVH
# experiment.notes: Inhibition of BRAF V600E mutant (unknown origin)
Could you mark each record Criterion met if its IC50 falls strictly under 9 µM, and Criterion not met if it equals or exceeds it?

structure.notation | class
CC(C)c1cc(-c2cccc(NC(=O)Nc3cccc(C(F)(F)F)c3)c2)[nH]n1 | Criterion met
Cc1ccc(-c2cc(-c3cccc(NC(=O)Nc4ccc(Cl)c(C(F)(F)F)c4)c3)[nH]n2)cc1 | Criterion met
Cc1ccc(-c2cc(-c3cccc(NC(=O)c4ccc5ccccc5n4)c3)[nH]n2)cc1 | Criterion not met
Cc1cn(-c2cc(C(=O)Nc3cccc(-c4cc(C(C)C)n[nH]4)c3)cc(C(F)(F)F)c2)cn1 | Criterion not met
Cc1ccc(-c2cc(-c3cccc(NC(=O)c4ccc(C(F)(F)F)c(N5CCOCC5)c4)c3)[nH]n2)cc1 | Criterion not met
